# assay.system: Glutaminase kidney isoform, mitochondrial (Homo sapiens)
# assay.explanation: qHTS for Inhibitors of Glutaminase (GLS): LOPAC Validation (AID 624146); further: nearly all actives have a fitted effect of over 60% in size
# cond: glutaminase enzyme activity inhibition; series mostly up to 46.1 µM
Results filed as inconclusive are left out. Active and inactive are the calls of the source. The call rests on the fitted dose curve; in most records, active means well fitted inhibition curve with a large enough effect; inconclusive means small, poorly fitted or top-dose-only effect; inactive means no such curve, though single readings can be large or run the other way.
Outcome codes: class 1 (active), class 0 (inactive)

| molecule | assay.system | qualitative.label |
| --- | --- | --- |
| O=Nc1c(-c2c(O)[nH]c3ccccc23)[nH]c2ccccc12 | Glutaminase kidney isoform, mitochondrial (Homo sapiens) | class 1 |
| S=C(Nc1ccccc1)Nc1nccs1 | Glutaminase kidney isoform, mitochondrial (Homo sapiens) | class 1 |
| Oc1cc2c(c(Cl)c1O)CCNCC2c1ccccc1 (configuration not stated) | Glutaminase kidney isoform, mitochondrial (Homo sapiens) | class 1 |
| N#C/C(=C\c1ccc(O)c(O)c1)C(=O)Nc1ccccc1 | Glutaminase kidney isoform, mitochondrial (Homo sapiens) | class 1 |
| CN1C2CCCC1CC(NC(=O)c1nn(C)c3ccccc13)C2 (configuration not stated) | Glutaminase kidney isoform, mitochondrial (Homo sapiens) | class 0 |
| CCc1ccc(/C=C2/SC(=S)NC2=O)cc1 | Glutaminase kidney isoform, mitochondrial (Homo sapiens) | class 0 |
| CC[N+](CC)(CC)CC | Glutaminase kidney isoform, mitochondrial (Homo sapiens) | class 0 |
